Source of measurements: patent US6479531B1

Assign Ki to each entry below.
- target_under_test: CCKA receptor (Cavia porcellus)
- Construct: The pancreatata were removed from male guineau-pigs (200-300 g; Dunkin Hartley); from tissue; host or cells: pancreas membranes of male Dunkin Hartley guinea-pigs
- Sequence (Q63931 1-430): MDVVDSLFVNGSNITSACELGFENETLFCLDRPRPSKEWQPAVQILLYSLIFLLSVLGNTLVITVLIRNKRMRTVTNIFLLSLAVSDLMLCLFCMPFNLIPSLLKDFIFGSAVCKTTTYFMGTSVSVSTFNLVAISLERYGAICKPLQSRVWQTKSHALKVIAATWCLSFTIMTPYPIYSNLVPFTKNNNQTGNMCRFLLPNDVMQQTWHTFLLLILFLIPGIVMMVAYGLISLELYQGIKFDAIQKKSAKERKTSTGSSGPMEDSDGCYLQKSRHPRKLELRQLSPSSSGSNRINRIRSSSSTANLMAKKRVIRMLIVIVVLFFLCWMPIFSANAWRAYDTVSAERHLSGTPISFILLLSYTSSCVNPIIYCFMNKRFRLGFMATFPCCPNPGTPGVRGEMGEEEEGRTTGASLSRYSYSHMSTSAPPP
- protocol_notes: CCKA binding assay in guinea-pig pancreas membranes
- reported_conditions: [125I]-CCK8(S) 200 pM, with 0.375 μM PD134,308, read-out: CCKA pKi (converted)
Numbers only, in µM.

In the examples that follow, each entry is paired with its recorded Ki.
molecule: Cc1ccc(NC(=O)c2[nH]c(C3(C)CCCCC3)nc2CCC23CC4CC(CC(C4)C2)C3)cc1C(=O)O [Example 200]
measured_parameter: Ki
value_reported: 0.251
--
molecule: O=C(O)Cc1cccc(NC(=O)c2nc(C3CCCCC3)[nH]c2COC23CC4CC(CC(C4)C2)C3)c1 [Example 219]
measured_parameter: Ki
value_reported: 0.501
--
molecule: O=C(O)c1cccc(NC(=O)c2nc([C@@H]3CC4C=C[C@H]3C4)[nH]c2COC23CC4CC(CC(C4)C2)C3)c1 [Example 236]
measured_parameter: Ki
value_reported: 0.794

Please state, for each entry, its recorded Ki.
1. O=C(O)c1cccc(NC(=O)c2nc(C3CCCCC3)[nH]c2COC23CC4CC(CC(C4)C2)C3)c1 [Example 216]
2. O=C(O)Cc1cccc(NC(=O)c2nc(C34CCC(CC3)CC4)[nH]c2COC23CC4CC(CC(C4)C2)C3)c1 [Example 224]
3. Cc1ccc(NC(=O)c2nc(C3CC4C=CC3C4)[nH]c2CCC23CC4CC(CC(C4)C2)C3)cc1C(=O)O (racemic) [Example 211]
4. O=C(O)c1cccc(NC(=O)c2nc([C@H]3CC4C=C[C@@H]3C4)[nH]c2COC23CC4CC(CC(C4)C2)C3)c1 [Example 235]

1: 0.501; 2: 0.631; 3: 0.1; 4: 2.51
